tested-target: Recombinant human renin (Homo sapiens, UniProt P00797)
Sequence (P00797 67-406): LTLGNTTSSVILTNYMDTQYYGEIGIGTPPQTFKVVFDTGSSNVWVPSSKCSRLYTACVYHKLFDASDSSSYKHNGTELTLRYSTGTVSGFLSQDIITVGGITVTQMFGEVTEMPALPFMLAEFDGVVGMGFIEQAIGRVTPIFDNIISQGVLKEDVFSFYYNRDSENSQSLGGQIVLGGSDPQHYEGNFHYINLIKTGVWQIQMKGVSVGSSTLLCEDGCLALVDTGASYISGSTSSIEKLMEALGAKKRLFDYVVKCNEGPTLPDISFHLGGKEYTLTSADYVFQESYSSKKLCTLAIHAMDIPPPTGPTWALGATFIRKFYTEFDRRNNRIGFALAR
experiment: Inhibitory activity against human renin (fluorogenic peptide substrate)
Assay type: biochemical
particulars: 50% inhibitory concentration (IC50) against human renin, 37° C. for 1 hour
pIC50: −log10 of the molar value.
endpoint: pIC50

A: COC(=O)NCCCn1nc([C@@H](C)N(C(=O)[C@H]2CNCCO2)C2CC2)c(C)c1-c1ccccn1
B: COC(=O)NCCCc1cc([C@@H](C)N(C(=O)[C@H]2CNCCO2)C2CC2)sc1-c1cc(F)cc(F)c1O
Challenge: Between the two listed entries A and B , which has its pIC50 at the higher number? Output the label that corresponds to your choice.
Response given: A
(A: 9.40, B: 9.05)

1: COC(=O)NCCCn1nc([C@@H](C)N(C(=O)[C@H]2CN[C@@H](COCc3ccccc3)CO2)C2CC2)c2ccc(C)nc21
2: COC(=O)NCCCc1cc([C@@H](C)N(C(=O)[C@H]2CNCCO2)C2CC2)sc1C(F)(F)F
3: COC(=O)NCCCc1nc(OC)cc([C@@H](C)N(C(=O)[C@H]2CNCCO2)C2CC2)n1
Challenge: # desc sort on pIC50 across 3 compounds State the ranking by listing the labels in the requested order.
Response given: 2, 1, 3

----------
tested-target: Recombinant human renin (Homo sapiens, UniProt P00797)
experiment: Inhibitory activity against human renin (fluorogenic peptide substrate)
Format: biochemical
particulars: 50% inhibitory concentration (IC50) against human renin, 37° C. for 1 hour
Method: Inhibitory Activity Against Human Renin A substrate of synthetic peptide (Nma-KHPFH LVIHK(Dnp)-NH2) and test compound were mixed, and fluorescence intensity was assayed using a fluorophotometer before starting an enzymatic reaction (exciting wavelength: 340 nm, measuring wavelength: 460 nm). […]
endpoint: IC50 (nM)

COC(=O)NCCCc1cc([C@@H](C)N(C(=O)[C@H]2CNC[C@@H](C)O2)C2CC2)cc(OC)n1    0.6
COC(=O)NCCCn1nc([C@@H](C)N(C(=O)[C@H]2CN[C@@H](CCF)CO2)C2CC2)c2ccc(C)nc21    0.4
COCCCOc1cc([C@@H](C)N(C(=O)[C@H]2CNCCO2)C2CC2)nn1-c1ccccc1    0.8

1: COC(=O)NCCCc1cc([C@@H](C)N(C(=O)[C@H]2CNCCO2)C2CC2)sc1-c1cccc(C)n1
2: COC(=O)NCCCc1cc([C@H](C)N(C(=O)[C@H]2CNCCO2)C2CC2)sc1-c1ccnn1C
3: COC(=O)NCCCc1cc([C@H](C)N(C(=O)[C@H]2CNCCO2)C2CC2)cnc1C1CCOCC1
Challenge: # sort list by recorded IC50, greatest to least Would you mind listing the labels in the order asked for?
Response given: 2, 3, 1
(2: 3.5 nM, 3: 0.6 nM, 1: 0.3 nM)

----------
tested-target: Recombinant human renin (Homo sapiens, UniProt P00797)
experiment: Inhibitory activity against human renin (fluorogenic peptide substrate)
Format: biochemical
particulars: 50% inhibitory concentration (IC50) against human renin, 37° C. for 1 hour
Description: Inhibitory Activity Against Human Renin A substrate of synthetic peptide (Nma-KHPFH LVIHK(Dnp)-NH2) and test compound were mixed, and fluorescence intensity was assayed using a fluorophotometer before starting an enzymatic reaction (exciting wavelength: 340 nm, measuring wavelength: 460 nm). […]
pIC50: −log10 of the molar value.
endpoint: pIC50

Previously resolved entries follow.
COCCCc1cn(C)c2c(C)nc([C@@H](C)N(C(=O)[C@H]3CNCCO3)C3CC3)cc12    8.85
COC(=O)NCCCc1cc([C@@H](C)N(C(=O)[C@H]2CNCCO2)C2CC2)nn1-c1ccccc1C    9.30
COC(=O)NCCCn1cc([C@@H](C)N(C(=O)[C@H]2CNCCO2)C2CC2)nc1-c1ccc(C)cc1    9.40
COC(=O)NCCCc1cc([C@@H](C)N(C(=O)[C@H]2CNCCO2)C2CC2)sc1-c1ccccc1C(=O)OC    9.30
COC(=O)NCCCn1cc([C@@H](C)N(C(=O)[C@H]2CNCCO2)C2CC2)nc1-c1ccccc1C    9.52

P: COC(=O)NCCCn1nc([C@@H](C)N(C(=O)[C@H]2CNCCO2)C2CC2)cc1-c1cccnc1
Q: COC(=O)NCC(F)Cn1nc([C@@H](C)N(C(=O)[C@H]2CNCCO2)C2CC2)cc1-c1ccccc1 (stereo partly shown) [Example 198]
Challenge: Given P and given Q , which shows the smaller recorded pIC50? Indicate your choice by writing its label.
Response given: P
(P: 9.40, Q: 9.70)

----------
tested-target: Recombinant human renin (Homo sapiens, UniProt P00797)
experiment: Inhibitory activity against human renin (fluorogenic peptide substrate)
Assay type: biochemical
particulars: 50% inhibitory concentration (IC50) against human renin, 37° C. for 1 hour
endpoint: IC50 (nM)

I: COC(=O)NCCN1CC(C)(C)c2ccc([C@@H](C)N(C(=O)[C@H]3CNCCO3)C3CC3)cc21 [Example 151]
II: COC[C@@H]1CNC[C@H](C(=O)N(C2CC2)[C@H](C)c2cn(CCCNC(=O)OC)c(C(F)(F)F)n2)O1 [Example 320]
III: COC(=O)NCCCc1cc([C@H](C)N(C(=O)[C@H]2CNC[C@@H](CF)O2)C2CC2)cc(OC)n1 [Example 314]
IV: COC(=O)NCC(F)Cn1nc([C@@H](C)N(C(=O)[C@H]2CNCCO2)C2CC2)cc1-c1ccccc1 (some centres unmarked) [Example 199]
Challenge: Lab note: arrange the 4 compounds above from lowest to highest IC50. I'd appreciate it if you listed the labels in the requested order.
Response given: IV, III, I, II
(IV: 0.2 nM, III: 0.5 nM, I: 1 nM, II: 3.2 nM)

a: CCOC[C@H]1CO[C@@H](C(=O)N(C2CC2)[C@H](C)c2nn(CCCNC(=O)OC)c3nc(C)ccc23)CN1 [Example 273]
b: COC(=O)NCCCn1nc([C@@H](C)N(C(=O)[C@H]2CNCCO2)C2CC2)cc1-c1ncc(C)cc1F [Example 223]
c: COC(=O)NCCCc1nc([C@@H](C)N(C(=O)[C@H]2CNCCO2)C2CC2)nn1-c1cccc(Cl)c1 [Example 365]
d: COC[C@@H]1CNC[C@H](C(=O)N(C2CC2)[C@H](C)c2cn(CCCNC(=O)OC)c(-c3ccc(F)cc3)n2)O1 [Example 277]
Challenge: Hey, can you sort those compounds up there by IC50, smallest first? Give your ranking as a list of the labels in the requested order.
Response given: b, d, a, c
(b: 0.4 nM, d: 0.6 nM, a: 1 nM, c: 3.5 nM)

I: COC(=O)NCCCc1cc([C@@H](C)N(C(=O)[C@H]2CNCCO2)C2CC2)sc1-c1ccccc1NS(=O)(=O)C(F)(F)F [Example 297]
II: COC(=O)NCCCc1cc([C@@H](C)N(C(=O)[C@H]2CNCCO2)C2CC2)nn1C(C)(C)C [Example 213]
Challenge: Returns: the label, I or II , whose recorded IC50 is the lower number. Refer to your chosen entry by its label in the reply.
Response given: II

a: COC(=O)NCCCc1cc([C@@H](C)N(C(=O)[C@H]2CNCCO2)C2CC2)nc2cc(F)c(F)cc12 [Example 143]
b: CCc1nc([C@@H](C)N(C(=O)[C@H]2CNC[C@@H](C)O2)C2CC2)cc2c1ncn2CCCOC [Example 392]
c: COC(=O)NCCCc1cc([C@@H](C)N(C(=O)[C@H]2CN[C@@H](C)CO2)C2CC2)nn1-c1ccc(F)cc1 [Example 371]
Challenge: Order the 3 compounds from highest to lowest IC50. // ordering of labels required in reply
Response given: a, c, b
(a: 1.5 nM, c: 1 nM, b: 0.7 nM)

----------
tested-target: Recombinant human renin (Homo sapiens, UniProt P00797)
experiment: Inhibitory activity against human renin (fluorogenic peptide substrate)
Assay type: biochemical
particulars: 50% inhibitory concentration (IC50) against human renin, 37° C. for 1 hour
pIC50: −log10 of the molar value.
endpoint: pIC50

Consider the worked cases shown below.
COC(=O)NCCCc1cc([C@@H](C)N(C(=O)[C@H]2CNCCO2)C2CC2)nn1-c1cccc(C(F)(F)F)c1 [Example 348]    9.15
COC(=O)NCCCc1cc([C@@H](C)N(C(=O)[C@H]2CNCCO2)C2CC2)sc1-c1ccccc1C(=O)NS(C)(=O)=O [Example 287]    9.10
COC[C@@H]1CNC[C@H](C(=O)N(C2CC2)[C@H](C)c2cn(CCCNC(=O)OC)c3ncccc23)O1 [Example 292]    9.40
COC(=O)NCCCc1cc([C@@H](C)N(C(=O)[C@H]2CNC[C@@H](C)O2)C2CC2)nn1-c1cccc(F)c1F [Example 347]    9.15

a: CCc1nc([C@@H](C)N(C(=O)[C@H]2CNCCO2)C2CC2)cc2c1c(C#N)cn2CCCOC [Example 161]
b: COC(=O)NCCCn1nc([C@@H](C)N(C(=O)[C@H]2CNCCO2)C2CC2)c(C)c1-c1ncccc1F [Example 234]
c: COC(=O)NCCCc1nc([C@@H](C)N(C(=O)[C@H]2CNCCO2)C2CC2)sc1-c1cccc(Cl)c1 [Example 377]
Challenge: Form: Sort by [pIC50] Order [ ascending ] Give the labels in the order specified.
Response given: c, a, b
